Target: STK36 (Homo sapiens, UniProt Q9NRP7)
Construct: purchased DiscoverX (KINOMEscan)
Sequence (Q9NRP7 whole entry): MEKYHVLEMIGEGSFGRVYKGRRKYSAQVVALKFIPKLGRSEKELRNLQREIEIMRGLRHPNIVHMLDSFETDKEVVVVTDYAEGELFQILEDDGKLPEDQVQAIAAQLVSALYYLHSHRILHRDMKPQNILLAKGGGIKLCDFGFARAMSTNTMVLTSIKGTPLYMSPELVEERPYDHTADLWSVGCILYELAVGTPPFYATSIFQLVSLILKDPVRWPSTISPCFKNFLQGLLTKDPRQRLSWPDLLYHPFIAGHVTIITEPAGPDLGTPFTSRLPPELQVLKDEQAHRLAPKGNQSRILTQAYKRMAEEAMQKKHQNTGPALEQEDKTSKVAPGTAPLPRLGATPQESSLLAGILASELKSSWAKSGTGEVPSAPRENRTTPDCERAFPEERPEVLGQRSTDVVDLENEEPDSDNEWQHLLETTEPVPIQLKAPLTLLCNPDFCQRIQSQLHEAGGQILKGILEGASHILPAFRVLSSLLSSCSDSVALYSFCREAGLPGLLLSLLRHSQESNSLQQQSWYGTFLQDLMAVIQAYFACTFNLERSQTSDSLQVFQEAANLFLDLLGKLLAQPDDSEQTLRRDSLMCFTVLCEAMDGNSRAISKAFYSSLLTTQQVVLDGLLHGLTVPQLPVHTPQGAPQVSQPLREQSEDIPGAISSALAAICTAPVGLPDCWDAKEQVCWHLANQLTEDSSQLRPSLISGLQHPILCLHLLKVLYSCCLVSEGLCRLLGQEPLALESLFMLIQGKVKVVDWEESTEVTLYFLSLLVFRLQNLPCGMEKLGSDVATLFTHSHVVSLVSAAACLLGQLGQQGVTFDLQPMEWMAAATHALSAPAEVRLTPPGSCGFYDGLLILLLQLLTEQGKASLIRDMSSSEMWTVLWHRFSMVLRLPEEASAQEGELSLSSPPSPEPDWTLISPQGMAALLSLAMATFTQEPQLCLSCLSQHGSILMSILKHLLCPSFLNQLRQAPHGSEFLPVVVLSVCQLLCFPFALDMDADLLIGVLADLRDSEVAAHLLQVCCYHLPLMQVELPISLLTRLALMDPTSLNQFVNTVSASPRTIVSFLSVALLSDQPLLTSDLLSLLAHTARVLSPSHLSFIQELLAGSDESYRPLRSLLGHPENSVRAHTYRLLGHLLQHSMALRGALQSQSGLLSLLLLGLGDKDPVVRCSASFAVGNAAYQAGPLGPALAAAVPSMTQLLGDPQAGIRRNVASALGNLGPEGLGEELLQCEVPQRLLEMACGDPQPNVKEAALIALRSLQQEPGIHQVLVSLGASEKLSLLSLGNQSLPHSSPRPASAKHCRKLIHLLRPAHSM
Experiment: KINOMEscan competitive binding
Details: n=1, read-out: Percent inhibition, STK36
Measured Quantity: inhibition at 10 µM (%)
One number for each entry, in %.

Examples with answers:
| Cpd Smiles | inhibition at 10 µM (%) |
| --- | --- |
| Clc1ccc(Nc2ncc(-c3ccccc3)s2)cc1 | 0 |
| C[C@@H](Oc1cc(-c2cnc3ccccn23)sc1C(N)=O)c1ccccc1Cl | 0 |
| Cc1ccc(O)cc1N(C)c1ccnc(Nc2cccc(S(N)(=O)=O)c2)n1 | 99.3 |
| CN1CCN(c2ccc(Nc3nccc(-c4cnn5ncccc45)n3)cc2C#N)CC1 | 100 |

Okay, next one:
Give the measured inhibition at 10 µM of COc1ccc(Nc2nccc(-c3cnn4ncccc34)n2)cc1 .
98.8

* * *

Target: LKB1 (Homo sapiens, UniProt Q15831)
Construct: purchased DiscoverX (KINOMEscan)
Sequence (Q15831 whole entry): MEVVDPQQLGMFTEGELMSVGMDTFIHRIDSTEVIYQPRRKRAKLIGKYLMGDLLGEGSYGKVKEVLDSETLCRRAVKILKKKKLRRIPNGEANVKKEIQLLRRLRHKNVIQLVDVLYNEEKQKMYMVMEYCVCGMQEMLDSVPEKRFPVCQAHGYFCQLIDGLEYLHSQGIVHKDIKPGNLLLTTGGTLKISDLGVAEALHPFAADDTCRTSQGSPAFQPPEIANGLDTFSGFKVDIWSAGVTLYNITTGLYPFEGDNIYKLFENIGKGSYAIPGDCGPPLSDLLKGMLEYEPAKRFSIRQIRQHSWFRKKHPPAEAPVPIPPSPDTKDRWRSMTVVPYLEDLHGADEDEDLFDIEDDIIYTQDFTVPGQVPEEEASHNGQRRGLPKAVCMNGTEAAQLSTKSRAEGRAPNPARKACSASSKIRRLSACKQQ
Test: KINOMEscan competitive binding
Settings: 10 µM, n=1; kinase LKB1; read-out: Percent inhibition LKB1
If the reported inhibition at 10 µM equals or exceeds 70%, assign rule met. If not, assign rule not met.

// known answers, use as guide
| Cpd Smiles | Label Value |
| --- | --- |
| COc1cc(Nc2nccc(-c3sc(N)nc3-c3cccc(NC(=O)c4c(F)cccc4F)c3)n2)cc(OC)c1OC | rule not met |
| Clc1ccc(Nc2ncc(-c3ccccc3)s2)cc1 | rule not met |
| Cc1ccc(O)cc1Nc1ccnc(Nc2cccc(C(N)=O)c2)n1 | rule met |

// inclusive: inhibition at 10 µM at least 70%? input: C[C@@H](Oc1cc(-c2cnc3ccccn23)sc1C(N)=O)c1ccccc1Cl
rule met

// inclusive: inhibition at 10 µM at least 70%? input: COc1ccc(Nc2nccc(-c3cnn4ncccc34)n2)cc1
rule met

* * *

Target: JAK1(JH2) (Homo sapiens, UniProt P23458)
Construct: JAK1(JH2); purchased DiscoverX (KINOMEscan)
Sequence (P23458 583-855 limits assumed): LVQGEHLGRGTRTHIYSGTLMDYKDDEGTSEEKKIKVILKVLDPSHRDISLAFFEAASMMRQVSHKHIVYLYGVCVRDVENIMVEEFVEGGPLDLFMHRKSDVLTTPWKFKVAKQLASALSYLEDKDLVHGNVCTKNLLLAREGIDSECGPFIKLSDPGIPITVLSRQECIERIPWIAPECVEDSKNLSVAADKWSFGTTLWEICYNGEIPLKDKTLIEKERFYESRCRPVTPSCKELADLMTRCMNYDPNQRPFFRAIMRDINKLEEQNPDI
Test: KINOMEscan competitive binding
Conditions: 10 µM, n=1; kinase JAK1(Kin.Dom.1); read-out: Percent inhibition JAK1(Kin.Dom.1)
Can you tell me inhibition at 10 µM for the items I'm about to list?

| Cpd Smiles | inhibition at 10 µM |
| --- | --- |
| COc1cc(Nc2nccc(-c3sc(N)nc3-c3cccc(NC(=O)c4c(F)cccc4F)c3)n2)cc(OC)c1OC | 0% |
| c1ccc(COc2cccc(-c3ccnc4[nH]ccc34)c2)cc1 | 0% |
| Cc1ccc(O)cc1N(C)c1ccnc(Nc2cccc(S(N)(=O)=O)c2)n1 | 0% |
| Clc1ccc(Nc2ncc(-c3ccccc3)s2)cc1 | 0% |

Okay, next one:
Give the measured inhibition at 10 µM of Nc1ncc2c(-c3ccncc3)c[nH]c2n1 .
99%

* * *

Molecular target: panel of 203 kinases (Homo sapiens, UniProt P29323)
Construct: purchased DiscoverX (KINOMEscan)
Sequence (P29323 19-1055): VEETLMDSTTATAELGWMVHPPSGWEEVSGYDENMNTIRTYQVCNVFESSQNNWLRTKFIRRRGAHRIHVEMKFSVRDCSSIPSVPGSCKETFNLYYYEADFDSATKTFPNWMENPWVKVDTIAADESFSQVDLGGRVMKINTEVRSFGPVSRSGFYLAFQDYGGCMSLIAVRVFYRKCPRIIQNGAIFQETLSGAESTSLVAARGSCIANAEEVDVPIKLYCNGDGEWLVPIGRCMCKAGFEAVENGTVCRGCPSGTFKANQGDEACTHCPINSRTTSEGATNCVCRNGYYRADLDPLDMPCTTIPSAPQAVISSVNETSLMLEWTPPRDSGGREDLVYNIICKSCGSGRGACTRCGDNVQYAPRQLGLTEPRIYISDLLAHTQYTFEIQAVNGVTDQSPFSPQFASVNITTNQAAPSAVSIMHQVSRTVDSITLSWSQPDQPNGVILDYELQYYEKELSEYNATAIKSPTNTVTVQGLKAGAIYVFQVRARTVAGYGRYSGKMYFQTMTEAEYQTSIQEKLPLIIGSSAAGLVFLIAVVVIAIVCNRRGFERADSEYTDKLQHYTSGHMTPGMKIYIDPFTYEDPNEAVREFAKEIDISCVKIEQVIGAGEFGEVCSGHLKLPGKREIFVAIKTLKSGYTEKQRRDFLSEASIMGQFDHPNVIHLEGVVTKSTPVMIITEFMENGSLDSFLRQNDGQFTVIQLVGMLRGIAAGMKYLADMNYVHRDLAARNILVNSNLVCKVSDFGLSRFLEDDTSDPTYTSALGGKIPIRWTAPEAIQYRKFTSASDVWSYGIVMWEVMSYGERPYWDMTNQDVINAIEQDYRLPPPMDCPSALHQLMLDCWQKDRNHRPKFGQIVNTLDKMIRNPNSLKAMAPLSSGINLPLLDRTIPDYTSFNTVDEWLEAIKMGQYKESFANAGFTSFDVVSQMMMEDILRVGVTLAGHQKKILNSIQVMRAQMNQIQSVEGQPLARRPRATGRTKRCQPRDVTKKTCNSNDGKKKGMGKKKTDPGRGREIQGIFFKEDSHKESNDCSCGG
Experiment: KINOMEscan competitive binding, whole panel
Conditions: 10 µM, n=1; kinase EPHB2; read-out: Percent inhibition EPHB2
Can you tell me inhibition at 10 µM for the items I'm about to list?
One number for each entry, in %.

| Cpd Smiles | Measured Quantity | Measure Unit | Recorded Value |
| --- | --- | --- | --- |
| Nc1ncc2c(-c3ccncc3)c[nH]c2n1 | inhibition at 10 µM | % | 62.6 |
| c1ccc(COc2cccc(-c3ccnc4[nH]ccc34)c2)cc1 | inhibition at 10 µM | % | 0 |
| C[C@@H](Oc1cc(-c2cnc3ccccn23)sc1C(N)=O)c1ccccc1Cl | inhibition at 10 µM | % | 0 |
| COc1ccc(Nc2nccc(-c3cnn4ncccc34)n2)cc1 | inhibition at 10 µM | % | 0 |

Quick request: inhibition at 10 µM for each listed item, please.
1. Cc1ccc(O)cc1Nc1ccnc(Nc2cccc(C(N)=O)c2)n1
2. Clc1ccc(Nc2ncc(-c3ccccc3)s2)cc1
3. CN1CCN(c2ccc(Nc3nccc(-c4cnn5ncccc45)n3)cc2C#N)CC1
4. Cc1ccc(O)cc1N(C)c1ccnc(Nc2cccc(S(N)(=O)=O)c2)n1
5. COc1cc(Nc2nccc(-c3sc(N)nc3-c3cccc(NC(=O)c4c(F)cccc4F)c3)n2)cc(OC)c1OC

1. 100
2. 0
3. 0
4. 100
5. 99.4

Give the measured inhibition at 10 µM of Fc1cccc(COc2ccc(Nc3ncnc4c3CN(CCN3CCOCC3)CC4)cc2Cl)c1 .
0

Recorded values, source paper PMC9927415.
